- SYSTEM_UNDER_TEST: VRK1 (human) (UniProt Q99986)
- Sequence (Q99986 whole entry, looked up): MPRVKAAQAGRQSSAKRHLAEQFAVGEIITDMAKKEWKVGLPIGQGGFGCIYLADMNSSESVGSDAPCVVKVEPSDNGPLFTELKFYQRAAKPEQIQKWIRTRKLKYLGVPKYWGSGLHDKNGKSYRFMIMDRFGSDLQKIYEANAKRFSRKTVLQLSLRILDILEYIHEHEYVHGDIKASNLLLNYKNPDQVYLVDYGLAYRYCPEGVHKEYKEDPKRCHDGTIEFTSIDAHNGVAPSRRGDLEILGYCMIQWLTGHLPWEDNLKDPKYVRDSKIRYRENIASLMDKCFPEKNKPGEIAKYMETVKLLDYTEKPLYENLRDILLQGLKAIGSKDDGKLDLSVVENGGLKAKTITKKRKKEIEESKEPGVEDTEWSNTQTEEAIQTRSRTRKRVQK
- ASSAY_DETAILS: radiometric filter-binding kinase assay, Kinase HotSpot
- RUN_CONDITIONS: compound 0.5 µM; ATP 10 µM
Here, each record is paired with measured residual activity data.
Please give a number only; it is taken to be in %.

Some compounds with recorded residual activity:
compound=COc1ccc2c(c[n+](C)c3c4cc5c(cc4ccc23)OCO5)c1OC measured_property="residual activity" output_unit=% recorded_measurement=106
compound=Nc1cccc(-c2cc3c(Oc4cccc(O)c4)ncnc3[nH]2)c1 measured_property="residual activity" output_unit=% recorded_measurement=81.6
compound=Nc1ncnc2[nH]nc(Nc3ccc(F)cc3)c12 measured_property="residual activity" output_unit=% recorded_measurement=82.9
compound="CO[C@H]1CC2CC[C@@H](C)[C@@](O)(O2)C(=O)C(=O)N2CCCC[C@H]2C(=O)OC([C@H](C)C[C@@H]2CC[C@@H](O)[C@H](OC)C2)CC(=O)[C@H](C)/C=C(\\C)[C@@H](O)[C@@H](OC)C(=O)[C@H](C)C[C@H](C)/C=C/C=C/C=C/1C (stereo not given in full)" measured_property="residual activity" output_unit=% recorded_measurement=108
compound=CC(C)N(CCC(=O)c1ccc2ccccc2c1)Cc1ccccc1 measured_property="residual activity" output_unit=% recorded_measurement=95.8
compound=N#C/C(=C(/N)Sc1ccc(N)cc1)c1ccccc1C(F)(F)F measured_property="residual activity" output_unit=% recorded_measurement=100

**Query** Note down residual activity recorded for Nc1ccc2ncnc(NCCc3ccc(Oc4ccccc4)cc3)c2c1
**Result** 99.5

**Query** Note down residual activity recorded for CCOC(=O)c1c(C)[nH]c(/C=C2\C(=O)Nc3ccccc32)c1C
**Result** 104

**Query** Note down residual activity recorded for O=c1cc(N2CCOCC2)oc2c1ccc1ccccc12
**Result** 93.3

**Query** Note down residual activity recorded for CCCC(=O)Oc1ccc2[nH]c(C(=O)c3cc4ccccc4[nH]3)cc2c1
**Result** 85.9

----------
- SYSTEM_UNDER_TEST: RIPK2 (human)
- ASSAY_DETAILS: radiometric filter-binding kinase assay, Kinase HotSpot
- RUN_CONDITIONS: compound 0.5 µM; ATP 10 µM
Here, each record is paired with measured residual activity data.
Please give a number only; it is taken to be in %.

line_notation=CC[n+]1c(/C=C/N(C)c2ccccc2)n(-c2ccccc2)c2ccc(-c3nc4ccccc4s3)cc21 recorded_measurement=88.6

**Query** Note down residual activity recorded for Cc1ccc(S(=O)(=O)/C=C/C#N)cc1
**Result** 93.8

**Query** Note down residual activity recorded for O=C1Nc2ccc(Cl)cc2/C1=C/c1cc(Cl)c(O)c(Cl)c1
**Result** 50.2

**Query** Note down residual activity recorded for CCN(CC)CCNC(=O)c1c(C)[nH]c(/C=C2\C(=O)Nc3ccc(F)cc32)c1C
**Result** 104

**Query** Note down residual activity recorded for CCCC(=O)Oc1ccc2[nH]c(C(=O)c3cc4ccccc4[nH]3)cc2c1
**Result** 90

**Query** Note down residual activity recorded for COc1ccc2c(c[n+](C)c3c4cc5c(cc4ccc23)OCO5)c1OC
**Result** 105

**Query** Note down residual activity recorded for Cc1[nH]c(/C=C2\C(=O)Nc3ccc(S(=O)(=O)N(C)c4cccc(Cl)c4)cc32)c(C)c1C(=O)N1CCN(C)CC1
**Result** 92.7

**Query** Note down residual activity recorded for Cc1ccc(NC2=CC(=O)c3sc(C)nc3C2=O)cc1
**Result** 95.2

**Query** Note down residual activity recorded for CNc1cc2c(Nc3cccc(Br)c3)ncnc2cn1
**Result** 69.2
